Hi there, I'd appreciate the recorded Lipophilic Efficiency (logD) for every entry that follows.
# Tested on: parental HEK cells
# Experiment Description: HEK parental Agonist Counterscreen Assay (non-transfected cells)
# Format: cell-based
# Condition Parameters: HEK Agonist Activity section
Keep it simple and answer with nothing but the number.

### Prompt Name the value of Lipophilic Efficiency (logD) reported for O=C(Cn1ccc2ccccc21)NCCCC(=O)Nc1cccc2cccnc12 when tested on parental HEK cells.
### Response 2.07

### Prompt Recall the reported Lipophilic Efficiency (logD) of O=C(CSc1ccc(Cl)cc1)NNC(=O)c1ccc([N+](=O)[O-])cc1 on parental HEK cells and write it down.
### Response 2.09

### Prompt Tell me Lipophilic Efficiency (logD) of Cc1nn(CC(=O)NC2CCCc3ccccc32)c(=O)c2c1sc1ccccc12 (stereo not shown) when tested on parental HEK cells.
### Response 1.18

### Prompt Write Lipophilic Efficiency (logD) of CCCN1C(=O)CCc2cc(NC(=O)NCCc3ccc(OC)cc3)ccc21 ; system used: parental HEK cells
### Response 1.61

* * *

# Study System: GPR139 (Homo sapiens, UniProt Q6DWJ6)
# Sequence (Q6DWJ6 whole entry): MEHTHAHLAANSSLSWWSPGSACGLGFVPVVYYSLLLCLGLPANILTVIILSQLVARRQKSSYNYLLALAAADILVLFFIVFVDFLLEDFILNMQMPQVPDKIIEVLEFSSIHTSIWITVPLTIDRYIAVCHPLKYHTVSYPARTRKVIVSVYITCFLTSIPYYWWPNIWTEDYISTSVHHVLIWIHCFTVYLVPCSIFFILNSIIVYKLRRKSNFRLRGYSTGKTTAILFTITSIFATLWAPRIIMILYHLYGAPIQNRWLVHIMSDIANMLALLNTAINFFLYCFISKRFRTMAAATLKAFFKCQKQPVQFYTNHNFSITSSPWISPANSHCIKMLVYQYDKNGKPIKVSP
# Experiment Description: GPR139 Antagonist titration assay (calcium detection, HEK-GPR139 cells, vs EC80 of S-JNJ-63533054)
# Condition Parameters: based on logD
The label 1 is reserved for GPR139 Antagonist Activity Lipophilic Efficiency (logD) strictly under 0.5; 0 covers values equal to or above it.

### Prompt Problem: For the molecule COc1ccc(C(C(=O)NC(C)c2ccccc2)(c2ccccc2)c2ccccc2)cc1 (centres unmarked) [SR-01000529482] , is GPR139 Antagonist Activity Lipophilic Efficiency (logD) under 0.5?
### Response 1

### Prompt Regarding CCOC(=O)c1ccc2nc(C)c3c(c2c1)OC(C(C)(Cl)Br)C3 (centres unmarked) [SR-01000220077] , kindly confirm whether its GPR139 Antagonist Activity Lipophilic Efficiency (logD) is beneath 0.5.
### Response 0

### Prompt Consider Cc1cc(C)c(NC(=O)c2ccc(Br)cc2)c(C)c1NC(=O)c1ccc(Br)cc1 [SR-01000512383] . Does its GPR139 Antagonist Activity Lipophilic Efficiency (logD) lie strictly below 0.5?
### Response 1

### Prompt Consider the molecule CC(=O)N1N=C(c2ccc(C)cc2)CC1c1ccccc1F (centres unmarked) [SR-01000429850] . Is its GPR139 Antagonist Activity Lipophilic Efficiency (logD) strictly less than 0.5?
### Response 0

### Prompt # check: GPR139 Antagonist Activity Lipophilic Efficiency (logD) < 0.5 for Cc1cc(C)cc(-n2cnc3cc(C(=O)NCc4ccccc4Cl)ccc32)c1 [SR-01000579741]
### Response 1

### Prompt Bench note: check whether O=C(Nn1c(-c2cccc(Cl)c2)nc2ccccc2c1=O)c1cc(Br)ccc1Cl [SR-01000433654] shows GPR139 Antagonist Activity Lipophilic Efficiency (logD) below 0.5
### Response 1

### Prompt In plain terms, does COc1ccc(-c2noc(CN3CCCN(c4ccc(F)cc4)CC3)n2)c(OC)c1OC [SR-01000169333] come in under 0.5 for GPR139 Antagonist Activity Lipophilic Efficiency (logD)?
### Response 0

* * *

Kindly state Efficiency Ligand for each of the entries shown.
# Study System: GPR139 (Homo sapiens)
# Experiment Description: GPR139 Agonist titration / agonist counterscreen assay (calcium detection, HEK-GPR139 cells)
# Assay type: cell-based
# Set-up: expressed in transfected cells; host or cells: HEK Aequorin cells, Maxcyte transient transfection
# Condition Parameters: GPR139 Agonist Activity; ligand efficiency
Response field accepts a number only; no unit should be typed.

### Prompt Look up Efficiency Ligand of O=C(CN1C(=O)NC2(CCc3ccccc32)C1=O)Nc1cccc(Cl)c1 (stereo not shown) and report it.
### Response 0.38

### Prompt Consider the molecule COc1cccc(C(=O)NNC(=O)C(C)Oc2ccc(Cl)cc2Cl)c1 (stereo not shown) . State its measured Efficiency Ligand.
### Response 0.47

### Prompt Please supply the value of reported Efficiency Ligand for the item O=C(CN1CCN(Cc2ccc(F)cc2Cl)C1=O)NCc1ccccc1Cl
### Response 0.35

### Prompt Quick one: give measured Efficiency Ligand for Cc1cccc(C(=O)NNC(=O)C(C)Oc2ccc(O)cc2O)c1 (stereo not shown)
### Response 0.54

### Prompt Respond only with Efficiency Ligand recorded for O=C(CCc1nc2ccccc2s1)NNC(=O)C1CCCCC1
### Response 0.43

### Prompt State its Efficiency Ligand for this molecule: COc1ccc(C2(C)NC(=O)C(CC(=O)NCCc3ccccc3)C2=O)cc1 (stereo not shown)
### Response 0.38

### Prompt Read the entry Cc1ccc2c(CC(=O)NNC(=O)CC34CC5CC(CC(C5)C3)C4)coc2c1 and write its reported Efficiency Ligand.
### Response 0.35

### Prompt Complete the entry with Efficiency Ligand for CCOc1ccc(C(=O)NCCn2ccc3ccccc32)cc1OCC
### Response 0.49

### Prompt Give Efficiency Ligand for the following molecule: COc1ccc(CCNC(=O)COc2ccc(Cl)cc2Cl)cc1
### Response 0.50

### Prompt Determine from records and report Efficiency Ligand for Cc1ccc(S(=O)(=O)NC(=O)NC(C)Cc2ccccc2)cc1 (stereo not shown)
### Response 0.46

### Prompt // fetch Efficiency Ligand given entry O=C(NCCn1ccc2ccccc21)c1cccs1
### Response 0.51

### Prompt Give Efficiency Ligand for the following molecule: O=C(CSc1ccc(Cl)cc1)Nc1nnc(-c2ccc(F)cc2)o1
### Response 0.42

### Prompt Dear colleague, please send me the reported Efficiency Ligand for CSc1cccc(NC(=O)C2C3C=CC4(O3)C2C(=O)N(C(C)c2ccccc2)C4C(=O)NC2CCCC(C)C2C)c1 (stereo not shown) when you can.
### Response 0.23

### Prompt Tell me Efficiency Ligand reported for Cc1ccc(OCC(=O)NNC(=O)CN(C)S(=O)(=O)c2ccc(C)cc2)cc1
### Response 0.36

### Prompt Indicate the recorded Efficiency Ligand value for this molecule: CCC1CCCCN1C(=O)CN1C(=O)NC(C)(c2ccc3ccccc3c2)C1=O (stereo not shown)
### Response 0.38

### Prompt State its Efficiency Ligand: CCCCN(C)C(=O)CCC(=O)NNC1Cc2ccccc2C2=CC(C)=CC21 (stereo not shown)
### Response 0.34

* * *

Assign Hill Slope to each entry below.
# Study System: GPR139 (Homo sapiens)
# Experiment Description: GPR139 Agonist titration / agonist counterscreen assay (calcium detection, HEK-GPR139 cells)
# Assay type: cell-based
# Design: expressed in transfected cells; host or cells: HEK Aequorin cells, Maxcyte transient transfection
# Condition Parameters: GPR139 Agonist Activity
# Procedure: GPR activity was assessed using a calcium detection assay. […] Negative control samples were treated with DMSO. […] Intracellular calcium was measured using Calcium 5.

### Prompt State measured Hill Slope of the compound Cc1cccc(CNC(=O)Nc2ccc(-c3cn[nH]c3)cc2)c1.O=C(O)C(F)(F)F with GPR139 (Homo sapiens).
### Response 0.94

### Prompt Lab note: record Hill Slope of O=c1c2c([nH]c3nc(NCc4ccccc4Cl)nn13)CCC2 tested on GPR139 (Homo sapiens).
### Response 1.89

### Prompt Give GPR139 (Homo sapiens) Hill Slope for the following compound: Cc1c(Cl)c(C(F)(F)F)nn1CC(=O)NCc1ccc(Cl)cc1
### Response 0.88

### Prompt Give Hill Slope for COc1ccc2c(c1)C[C@H](C(=O)Nc1ccc(-c3cn[nH]c3)cc1OCCN1CCCC1)NC2.O=C(O)C(F)(F)F.O=C(O)C(F)(F)F.O=C(O)C(F)(F)F tested on GPR139 (Homo sapiens).
### Response 1.19

### Prompt Provide GPR139 (Homo sapiens) Hill Slope reading for O=C(Cn1nnc2c1-c1ccccc1OC2)Nc1cccc(Cl)c1 .
### Response 0.33

### Prompt System GPR139 (Homo sapiens). Read-out Hill Slope. Item CCSc1nc2sccn2c(=O)c1C(=O)NC(C)c1ccccc1 (centres unmarked) . Report value.
### Response 1.14

### Prompt Quote GPR139 (Homo sapiens) Hill Slope for entry O=C(CCS(=O)(=O)c1cccc2nonc12)NCCc1ccc(Cl)cc1 .
### Response 1.07

### Prompt Provide Hill Slope, recorded with GPR139 (Homo sapiens), of CCOC(=O)C1C2C=CC3(CN(C(C)c4ccc(Br)cc4)C(=O)C13)O2 (centres unmarked)
### Response 0.90

### Prompt Fill in: Hill Slope on GPR139 (Homo sapiens), entry O=C1CCCCN1c1cccc(NS(=O)(=O)c2cc(Cl)ccc2Cl)c1
### Response 0.68

### Prompt Specify the recorded Hill Slope for Cc1nn(CC(=O)NC2CCCc3ccccc32)c(=O)c2c1sc1ccccc12 (centres unmarked) , system: GPR139 (Homo sapiens).
### Response 0.79

### Prompt Write Hill Slope of C#CC1=C(CCCc2ccc(CC)cc2)CC(CCc2ccccc2CC)=C1 ; system used: GPR139 (Homo sapiens)
### Response 0.77

### Prompt Please report Hill Slope with GPR139 (Homo sapiens) for item Cc1ccc(CNC(=O)Cn2nc(-c3ccc(C)cc3)ccc2=O)cc1 .
### Response 1.42

### Prompt Given Cc1c(C=O)c2ccccc2n1CC(=O)NCc1ccccc1 , report its Hill Slope on GPR139 (Homo sapiens).
### Response 1.69

### Prompt Consider the compound O=C(NCCCn1ccnc1)c1cc2nc3c(c(C(F)(F)F)n2n1)CCc1ccccc1-3 tested on GPR139 (Homo sapiens); state its Hill Slope.
### Response 1.29

### Prompt # lookup: GPR139 (Homo sapiens) Hill Slope, key = O=C(CN1N=C(c2ccc(Cl)cc2)CCC1=O)NCCN1CCc2ccccc2C1
### Response 0.84

### Prompt Print GPR139 (Homo sapiens) Hill Slope for Cc1ccc(CN2CC34C=CC(O3)C(C(=O)NCCC3=CCCCC3)C4C2=O)cc1 (centres unmarked) .
### Response 0.73

### Prompt Supply Hill Slope measured with GPR139 (Homo sapiens) for CCCc1ccc(NC(=O)CCc2nc3c(c(=O)n2C)CCC3)cc1 .
### Response 1.55

These entries and their values trace back to patent US20250099420A1.
